// values below are reported half-life
Assay: Half life in monkey liver microsomes
Format: ADME, Macaca mulatta, microsome
Conditions: rhesus monkey
The figure you give is taken to be in min; do not add the unit.

MOLECULAR STRING: CNC(=O)c1c(-c2ccc(F)cc2)oc2ccc(-c3cc(C(=O)NC4(c5ccccn5)CC4)ccc3C)cc12
READING UNIT: min
MEASURED VALUE: 20

Need half-life of CNC(=O)c1c(-c2ccc(F)cc2)oc2ccc(-c3cc(C(=O)NC4(c5nc(C)no5)CC4)ccc3C)cc12 , thanks. 25

Endpoint output: half-life of CNC(=O)c1c(-c2ccc(F)cc2)oc2ccc(-c3cc(C(=O)NC4(c5ncccn5)CC4)ccc3C)cc12 . Value? 51
